The following molecules are shown together with reported CC50 at 48 h values.
- ASSAY_INFO: Human tumor cell line growth assay (SRB)
- Type: cell-based
- RUN_CONDITIONS: human, HT29 cells (colon), HT29, 48 h, read-out: LC50
ENDPOINT_LABEL: CC50 at 48 h (µM)

INSERT INTO assay_data (molecule, comparison_sign, observed) VALUES
  ('Cc1cc2nc3c4ccccc4n(CCN(C)C)c3nc2cc1C [B220, reference compound]', '=', 45.3),
  ('Cc1cc2nc3c4cc(O)ccc4n(CCN(C)C)c3nc2cc1C', '>', 100),
  ('COc1ccc2c(c1)c1nc3cc(C)c(C)cc3nc1n2CCN(C)C', '=', 5.72),
  ('Cc1cc2nc3c4cc([N+](=O)[O-])ccc4n(CCN(C)C)c3nc2cc1C', '>', 100),
  ('Cc1cc2nc3c4cc(N)ccc4n(CCN(C)C)c3nc2cc1C', '>', 100);

---

Items are presented alongside their recorded GI50.
- System: T-47D
- ASSAY_INFO: Human tumor cell line growth assay (SRB)
- Type: cell-based
- RUN_CONDITIONS: T47D, Breast, 48 h
ENDPOINT_LABEL: GI50 (nM)

INSERT INTO measurements (compound, uom, observed) VALUES
  ('Cc1cc2nc3c4cc(N)ccc4n(CCN(C)C)c3nc2cc1C', 'nM', 2260),
  ('Cc1cc2nc3c4ccccc4n(CCN(C)C)c3nc2cc1C [B220, reference compound]', 'nM', 2800),
  ('COc1ccc2c(c1)c1nc3cc(C)c(C)cc3nc1n2CCN(C)C', 'nM', 1320),
  ('Cc1cc2nc3c4cc(O)ccc4n(CCN(C)C)c3nc2cc1C', 'nM', 686),
  ('Cc1cc2nc3c4cc([N+](=O)[O-])ccc4n(CCN(C)C)c3nc2cc1C', 'nM', 499);

---

- Test system: OVCAR-5
- ASSAY_INFO: Human tumor cell line growth assay (SRB)
- Type: cell-based
- RUN_CONDITIONS: Homo sapiens; Ovarian, OVCAR-5, 48 h
ENDPOINT_LABEL: GI50 (nM)

INSERT INTO results (compound, uom, observed) VALUES
  ('Cc1cc2nc3c4ccccc4n(CCN(C)C)c3nc2cc1C [B220, reference compound]', 'nM', 2100),
  ('Cc1cc2nc3c4cc(N)ccc4n(CCN(C)C)c3nc2cc1C', 'nM', 1240),
  ('COc1ccc2c(c1)c1nc3cc(C)c(C)cc3nc1n2CCN(C)C', 'nM', 1120),
  ('Cc1cc2nc3c4cc([N+](=O)[O-])ccc4n(CCN(C)C)c3nc2cc1C', 'nM', 587),
  ('Cc1cc2nc3c4cc(O)ccc4n(CCN(C)C)c3nc2cc1C', 'nM', 867);

---

- ASSAY_INFO: Human tumor cell line growth assay (SRB)
- Format: cell-based
- RUN_CONDITIONS: human, U251 cells (CNS), U251, 48 h, read-out: LC50
ENDPOINT_LABEL: CC50 at 48 h (µM)

INSERT INTO results (compound, uom, comparison_sign, observed) VALUES
  ('Cc1cc2nc3c4ccccc4n(CCN(C)C)c3nc2cc1C [B220, reference compound]', 'µM', '=', 44.6),
  ('Cc1cc2nc3c4cc(N)ccc4n(CCN(C)C)c3nc2cc1C', 'µM', '=', 54.2),
  ('Cc1cc2nc3c4cc([N+](=O)[O-])ccc4n(CCN(C)C)c3nc2cc1C', 'µM', '>', 100),
  ('COc1ccc2c(c1)c1nc3cc(C)c(C)cc3nc1n2CCN(C)C', 'µM', '=', 6.09);

Hey, just so you know, these numbers are from patent US20230312578A1.
